Reported protease stability score is given for each of the following sequences.
- Run Description: protease stability score; higher = more stable; yeast display proteolysis, trypsin and chymotrypsin;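 note: log10 excess protease needed over predicted unfolded state with 0 meaning unfolded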
Number only, please.

Monomer Sequence | Reported Result
DEEQEKTIHRAHKHNDEDSFRKLFDKDATMQIGNKTFHGREEVETAVTQWHTQVDHLRVDHMRVTNGKLQIDFTAVINGQRIELRVKIKANNGKVKSVKIQARSEEDNEHLKKELD | 0.407
DEDHEAQRFFDHFEEVVQTGDPDQAKQLIDKNATAKYGDQEYHGWEDVHKHWLRLRRQADHIKFEVDDVRATNGRYEIQFVVIIDTNGNENTRRYRLQAQEDNGRLRVQNLTQQ | 1.49
DEKALEFIRKFEEVMKKGDHDTLKEMMDPNARFQYGDKTVHGREHAADWAKRVRDQMRVRIISVKYTARGNKATIQVRNQVNFNGRPLHDHFEVSFDMHNGKIKHASRTLSEEQRQRLEQ | 0.062
DEEKVAKRFLDNWVRALHHNNEKQFKKMLPPDARVEIGDKTYNGREQVVTFFAEWAKQFDHISLDLKDMRVHNGTMDIDVKVVANDNGKNEHMRVVYVIEIKGDEATFRSATHK | 1.87
DEERDERVATKVAEAMATGDPEKVMEQAPPNAEMRIGDKHFTGEEHIKQALLEWKRDADHIQVDHVSVQNGRAHMDMQFTINGRKRRYTLRVEVHNGKAKTVSVREP | 0.315
DQEKLQSYVKQYETNDESKLKKNMDENARVDIGDRRITGMEKAADILRHFMEQADHVKLDRMEVQGNHATVDVTAVVNGQKLDYKFVIHVHNGKVKRVEWRVTSEENQKTYDKIVG | 0.537

Reported protease stability score ( "DEKRVRRFAHKFIEVIERGDEHELRNLMDPDASMRVGDRTIHGRDEAARTIMKFLKRVDNLEVKSYDAQGDKVDIKVRASHDGKEHRITFDVKVHNGHIRHVTVKID" ) = 2.64

Reported protease stability score ( "DEHNEAVELMKKLWEAARTGDEEELHKQVDKDVRINVGDKELHGNSQAARKIMERAKRVDHVDVKIQEVTHKGDKIVMRVQFRNTHNGRETDSRYVVWFKNSNGRWVFVKIERG" ) = 1.31

Reported protease stability score ( "DEEENKHLISLFERNNWRDMAEMADKDVKAQYGDSTIHGREQVHEVLTQLQKRADHLEIKDYNVDGNKVVVDQVINVNGVTIRAKVLMEVHNGRIKQMHVQATDNEEKKKLDKVLS" ) = -0.466

Reported protease stability score ( "DEDFMNKFEELLRNQQTGDPQFVADQADPNARWNVGDKQLHGRHQIRHQAKTESDQMEVQIDRMDVKVQNGHIDARINRQSNENGRPSRNELDQTVHYHNGKLKQLDESTSH" ) = -0.44

Reported protease stability score ( "DEDHLRKLKEYVKNYNKGDPDKLDEYLDPNVRINVGDHTVHGMDEHNKQAEERTRNMRIQLRRVDVKARNGQLKATINAEAEVNGRPATLHADITVKMHNGKVKNIHVRMPEDYKREREK" ) = 0.008

Reported protease stability score ( "DEEEVKDLDRRLQEAMKTNDPDQMQRLVDENVTASYGDKEVTGREEFKKNNRELLKRVDHVNIHDVTVSGEEMVLDASVKHDGREHRIRVRAVVRDGRIKSLKIHDG" ) = 0.494

Reported protease stability score ( "EEQVRELLRKALEAKQEGDEKKLTKLFDPNAKVDVGDKTFHGMEDIARTIVTELKQIRVRLEIKHYSMRGDHLRVDAEVEEEHNGEPQTRRVIIYMHVQGDKITKQKIEDRQ" ) = 1.08

Reported protease stability score ( "DEQDLKKVREFVQAQEEGDEDKLRELMDPNARVRVGDHRINGMDEIVKTDKKEVDDIKLSITDLKMHVKGDHMKVRIHQIVNHNGRPHTKTVDVVAHRHNGRLKSMERQDTK" ) = -0.122

Reported protease stability score ( "DKKDVDRVIKLLEQGDWESLVEMMDENARLQVGNKNYHGRTQVRHAATRLQDRIDHVKIDQVDVHNGRVDARFKANINGKTMDVQVRINVDNGHIKYVRVTVRSEELRHELDRLLS" ) = 0.961

Reported protease stability score ( "DEDDVRRVHEMIRAEETNNEHQVKDLMDENARMVVGDQEITGMDHILKFIRETNKEIDIELRLRDVKVSNGNVHVTARVRFTVNGKPVDRSAKMEVQVENGRIQDVQKRFPTEWKRERHK" ) = -0.03

====

- Run Description: protease stability score; higher = more stable; yeast display proteolysis, trypsin and chymotrypsin;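 note: log10 excess protease needed over predicted unfolded state with 0 meaning unfolded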
Value Kind: protease stability score
Number only, please.

Consider the worked cases shown below.
Monomer Sequence | protease stability score
DEEELDRLQKQLERNDWETFVRQADENVKVKYGDRSLHGHEDFNKYMKRLHDQVDHYQLNRVTNHGDHLQARVVFRFNGQNIDMTFEVRVHNGRIQEVVFHFTDPRTHKQFKENMD | 1.42
DEEWLHRFLQQYRSGDEDQMVRNMDKDVKIDVGDKEIHGREEAERWYRELKKRIDHFEVDHIKIQGESATADVRMNVNGRDVKFTLHVEAHNGRVKYVRLQATSSEVKTRMDRALG | 0.198
DEEDQKTVEEFLHNLEKNNEDQIKRLLDKDVKFIIGDKELHGMEDAVDRLRRHIEEMKVRIESVSNTVSGDKVVVDFTFIEDQNGKPDRKRMKIEFRFHNGKAKEIRIETRQ | 1.38
DEKELKKVLERLVKAFKNGNTEEAKKLGKDDVQVEYGDEKYEGPDAMRTVLERVKKLGYEVEYKEEHYKGDTVTVKVEANLGGRTAKFRFQYQVQGQRVDKVKVEYSETAQKQIKHG | -0.106
DEKDHENVARNLVTAIVQGDPDRFKELLDKNVKFKYGETDVKGKDNAERVMKDFIKEADQVRVQTLSFHGEHIVINMVADVNGEEQRFQIRAKVHNGRVKEMVWHSR | 1.5

Reported protease stability score ( "DEEQNRRIDDMWRAEENGDENRMKELADPNVELQIGDKQVHGMDEYVKEAKKRRDKSEISIEIKQVEVHNGSVHVDFVFTENENGTPDSKRVHVNARFDNGKLKSMSQNDTE" ) = 1.1

Reported protease stability score ( "DENTEAQRFADNFNKLMNTGDEDTLNKLFDENAKVEVGDHRLHGREKLTKLAETNKQRFDHVKVDVDDIKVDNGTVQMRAVVIVYHNGRHHSVELEVVAQNHNGHARVKRMRVG" ) = 0.553

====

- Run Description: protease stability score; higher = more stable; yeast display proteolysis, trypsin and chymotrypsin;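 note: log10 excess protease needed over predicted unfolded state with 0 meaning unfolded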
Classify as follows. Reported protease stability score greater than or equal to 0.4: true. Reported protease stability score below: false.

Here's what some known entries look like.
Monomer Sequence | Category
DEKDVEKLQRLIKTGNEDHIANEADPNVQVTIGDDVIHGREEAVRQIQKWQRQVDHVEIKSMESQGEKVHVRRVLTVNGKNFEFTLQAEMHNGTLTHFDIQFRSEEDNKRFLKVVS | false
DEELSKRAKHLIEMMKTGDEKEIQKQMDKDVKIDIGDKTIKGREDAAEQWRNRVEKIRWSLTIRHVNVQGNHVTMNVEVHLNVNGQPNRYTIEISFTFHNGKIVYISVSFDEDTEEKAKK | true
DNETVDEALKAFNKNDERNMMRLADENAEMEIGDTEYHGQEQVQTLLQKLNQQVDHREFHSIETEPNRIRVDYRAVFNGRDIRVHVHLEFENGRLTRVRFDVRDPRQQKHLQDLLK | false
DEEKNQDHAKELAKAIVSNNEEDIERLMDPNATMLVGDKQVHGMEEARKLIRDLKKRADHIRVTDVTVSGNKIRVSFVMNVNGQNLQFVVDAQVHNGKITSMRIQARNDDIKRRLEQ | true
DSERASEAARTFVDAMRTNDEKQFNELFDPNARVRIGDEKVHGMDRITDQLHNLNKKADHNEVLDYKVNGNTAVVHFQVDHNGQTRRYRIVITMHNGRVHEMQVNTK | true

Exercise: State whether the measured protease stability score reaches 0.4, counting equality as reaching it, for "DERASELAEKIIKALHTGNPQEVQKLVPPDVHVVYGDKNIHGRENAKKYWDQVLRNWRLNIQDFRIDADGDNVTVELHAEFNVNGQPIQARATVTVNVKNGRVKELNVQLPHEDLRRIRQ"
Key: true

Exercise: State whether the measured protease stability score reaches 0.4, counting equality as reaching it, for "DTDAVKNFKEDLHAVRSGDPDRLLKMFDPNAKLQIGDKEVTGMDQYAKEVHNTRQEIRMSYELRDYKVDGDKIEADIRVQKDVNGRPYRDKVKVDIKVNNGRIKKARYQVDEDKEKQLQS"
Key: false

====

- Run Description: protease stability score; higher = more stable; yeast display proteolysis, trypsin and chymotrypsin;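 note: log10 excess protease needed over predicted unfolded state with 0 meaning unfolded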
Reported protease stability score is given for each of the following sequences.

Monomer Sequence | protease stability score
DEEENQELAEKFVRAIQEGDPDQITDLLDENAKATVGDRTYHGRSQIADYIHEMLKKADHFEVQSVDVQGNHIVIHVQMDINGKQVHMIIKMELSNGKVKHLEIEHK | 1.75
DETTVHHILKNFNEAMEQGDPKQAMRLADKDVKLDVGDKRVSGSETLDTLVKNIRDQADTISVKTVHVDGDTAHAVLVIRINGKDVEFNVRIEVHNGRIKSLEMDPDKLKSAMK | 0.852
DEENHTLAKMWFHAYNKGDEDQVRRMADPNVKIQIGDKVIHGRNDEVRWLKERRDHQRSDIKLDHVSASNGRVQIHFTFTVQHNGKPNTSKQQLSMVFQGDKLKSLHMRTDG | -0.112

Now examine the next entry.
Reported protease stability score ( "DEKKATKVAKQIQDMMVKGDSDKVEKVGKPNVEFQVGDVKMKGPDELKKYYKKVKDVGNELHVKEAKVEGDTVEVHYDLRHGGTQATVTVRIELKDDKVDRAKVDVDEHYKKIVKKG" ) = -0.068
